B1: WEE1 (parent)
chain: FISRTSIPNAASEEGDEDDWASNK

Variants of: B1
Test: protein stability index of a GFP-peptide fusion (GPS, HEK-293T) (PSI 1-6); higher = more stable;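 also: lentivirally expressed fusions sorted by FACS into six bins by GFP to DsRed ratio, PSI derived from sequencing read proportions per bin multiplied by bin number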
Settings: c terminus: a fixed tail appended
Given measured protein stability index, output t if it is greater than or equal to 4 and f if not.

• W20L = t
• N23H = f
• A11K = f
• E17F = f
• D18V = f
• D16P = f
• A11N = f
• S3T = t
• A11Q = t
• P8R = f
• T5N = t
• E14L = f
• S3E = t
• S3K = t
• I2Q = t
• I7D = t
• R4N = t
• E13K = f
• D16S = f
